Provide the recorded thermal shift delta Tm for the entries that follow.
- Tested on: LOC_OS01G60700-cb002;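 further: purified Escherichia coli-expressed rice kinase domain construct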
- procedure_details: thermal shift delta Tm vs DMSO control; higher = stronger stabilization (binding)
- condition_label: 12.5 µM; protein concentration 2 µM
Counter-ions that a name gives are not always drawn.
Output should be the measured figure followed by the unit it is expressed in.

Entry COc1cc2ncnc(Nc3ccc(O)c(Br)c3)c2cc1OC : reported thermal shift delta Tm = ?
1.72 °C

Find the recorded thermal shift delta Tm belonging to CNC(=O)c1ccc(Nc2ncc(C(F)(F)F)c(NCc3nccnc3N(C)S(C)(=O)=O)n2)cc1 and report it.
1.41 °C

Please report the recorded thermal shift delta Tm for O=C1NC(=O)/C(=C/c2ccc3nccc(-c4ccncc4)c3c2)S1 .
0.74 °C

// lookup thermal shift delta Tm for CN1CCN(C2CCN(C(=O)Nc3cc(Oc4ccc(NC(=O)C5(C(=O)Nc6ccc(F)cc6)CC5)c(F)c4)ccn3)CC2)CC1 [Golvatinib (E7050)]
1.6 °C

I would be grateful if you could share the reported thermal shift delta Tm for N#CCNC(=O)c1ccc(-c2ccnc(Nc3ccc(N4CCOCC4)cc3)n2)cc1 [Momelotinib (CYT387)] .
1.01 °C

For the compound CS(=O)(=O)N1CCc2c(-c3cnc(N)nc3)nc(N3CCOCC3)nc21 , what thermal shift delta Tm is on record?
0.95 °C

Find the recorded thermal shift delta Tm belonging to COc1cc2nccc(Oc3ccc(NC(=O)c4cn(C(C)C)c(=O)n(-c5ccc(F)cc5)c4=O)cc3F)c2cc1OC and report it.
0.47 °C

What value of thermal shift delta Tm has been recorded for this entry: CNC(=O)c1ccc(C)c(-n2c(C)cc(OCc3ccc(F)cc3F)c(Br)c2=O)c1
1.45 °C

Which thermal shift delta Tm is reported for this compound? CNC(=O)c1cc(Oc2ccc(NC(=O)Nc3ccc(Cl)c(C(F)(F)F)c3)cc2)ccn1 [Sorafenib Tosylate]
1.77 °C

What value of measured thermal shift delta Tm is listed for Cc1ccc([N+](=O)[O-])cc1S(=O)(=O)N(C)/N=C/c1cnc2ccc(Br)cn12 ?
1.24 °C

Need thermal shift delta Tm of Cc1cnc(Nc2ccc(OCCN3CCCC3)cc2)nc1Nc1cccc(S(=O)(=O)NC(C)(C)C)c1 , thanks.
0.56 °C

# input compound: C[C@@H](Oc1cc(-c2cnn(C3CCNCC3)c2)cnc1N)c1c(Cl)ccc(F)c1Cl ; wanted: its thermal shift delta Tm
0.88 °C

Returns the measured thermal shift delta Tm for the input compound. Input: CCS(=O)(=O)N1CCN(c2ccc(Nc3ncc(C(N)=O)c(NC4CC4)n3)cc2)CC1
1.4 °C

Would you kindly share the measured thermal shift delta Tm for Cc1ccc(Nc2cc(N[C@@H]3CCCC[C@@H]3N)nnc2C(N)=O)nc1C ?
1.25 °C

Param item = COc1ccccc1-c1cc(Nc2cccc(CS(N)(=O)=O)c2)ncn1 ; retrieve measured thermal shift delta Tm.
1.21 °C

Looking for the measured thermal shift delta Tm of Nc1ncc(-c2ccnc(Nc3ccncc3)n2)c(CC2CC2)n1 , can you help?
1.53 °C

Would you kindly share the measured thermal shift delta Tm for Cn1c(Nc2ccc(C(F)(F)F)cc2)nc2cc(Oc3ccnc(-c4ncc(C(F)(F)F)[nH]4)c3)ccc21 ?
0.58 °C

Look up thermal shift delta Tm: O=c1sn(-c2cccc3ccccc23)c(=O)n1Cc1ccccc1 [Tideglusib]
1.08 °C

Any idea what thermal shift delta Tm was measured for C[C@@H]1COC(Nc2ccc3ncnc(Nc4ccc(OCc5nccs5)c(Cl)c4)c3c2)=N1 [Varlitinib] ?
1.53 °C

Please look up its thermal shift delta Tm: CN1CCN(c2ccc3nc(-c4c(N)c5c(F)cccc5[nH]c4=O)[nH]c3c2)CC1 [Dovitinib (TKI258) Lactate]
1.84 °C

Requested field: thermal shift delta Tm. Item: CC(=O)O/N=C1/C(c2c(O)[nH]c3cc(Br)ccc23)=Nc2ccccc21 [BIO-acetoxime]
-0.6 °C

Please report the recorded thermal shift delta Tm for CN1CC[C@H](c2c(O)cc(O)c3c(=O)cc(-c4ccccc4Cl)oc23)[C@H](O)C1 [Flavopiridol (Alvocidib)] .
0.39 °C

Returns the measured thermal shift delta Tm for the input compound. Input: Oc1ccc(Nc2nc(-c3ccc(Cl)cc3)cs2)cc1
-0.25 °C

Quick check: thermal shift delta Tm of CCN(CC)CCNC(=O)c1c(C)[nH]c(/C=C2\C(=O)Nc3ccc(-c4csc(-c5ccccc5)n4)cc32)c1C [Amcasertib (BBI503)] ?
-0.11 °C

I'd like to know its thermal shift delta Tm. The compound in question is CC(C)(C)c1ccc(S(=O)(=O)/C=C/C#N)cc1
1.42 °C

Looking for the measured thermal shift delta Tm of CC[C@@](C)(Nc1ccnc(-c2c[nH]c3ncccc23)n1)C(=O)NCC(F)(F)F [Decernotinib (VX-509)] , can you help?
0.67 °C

Name the reported thermal shift delta Tm value associated with the compound NC[C@@](O)(c1ccc(Cl)cc1)c1ccc(-c2cn[nH]c2)cc1
1.37 °C

Which thermal shift delta Tm value is on record for C#Cc1cccc(Nc2ncnc3cc(OCCOC)c(OCCO)cc23)c1 ?
0.24 °C

I am curious: what thermal shift delta Tm value has been reported for COc1cc2c3cc1Oc1c(OC)c(OC)cc4c1[C@@H](Cc1ccc(O)c(c1)Oc1ccc(cc1)C[C@@H]3N(C)CC2)N(C)CC4 [Berbamine (dihydrochloride)] ?
1.22 °C

Would you mind telling me what thermal shift delta Tm value was observed for OCCn1cc(-c2cnc3nnn(Cc4ccc5ncccc5c4)c3n2)cn1 ?
0.46 °C

Item C=C[C@@](C)(/C=C/c1ccc(O)cc1)CCC=C(C)C [Bakuchiol] has what recorded thermal shift delta Tm?
0.05 °C

Request the reported thermal shift delta Tm associated with CCc1cc(Nc2nccc(-c3c(-c4ccc(OC)c(C(=O)Nc5c(F)cccc5F)c4)nc4ccccn34)n2)c(OC)cc1N1CCC(N2CCN(S(C)(=O)=O)CC2)CC1
1.19 °C

Entry O=C(O)c1ccc(-c2c[nH]c3ncc(-c4ccccc4)cc23)cc1C1CCCC1 : reported thermal shift delta Tm = ?
-3.79 °C

Could you share which thermal shift delta Tm value was measured for C=CCc1ccc(O)c(-c2ccc(O)c(CC=C)c2)c1 [Honokiol] ?
1.34 °C

Reported thermal shift delta Tm for CCN1CCN(Cc2ccc(C(=O)Nc3ccc(C)c(Oc4ccc5c(c4)CC(=O)N5)c3)cc2C(F)(F)F)CC1 : what is it?
1.34 °C
